The reported measurements were obtained from patent US12741974B2.

# Tested on: LoVo (drug-sensitive human colon cancer)
# assay-protocol: In vitro cytotoxicity test, SRB assay, 72 h incubation with compound
# Format: cell-based
# test-conditions: selectivity coefficient, BALB/3T3 versus LoVo
Label scheme for SI LoVo: lower than 5 is F, 5 and above is T.

compound	assigned-category
CC[C@@H](C(=O)[C@@H](C)[C@@H](O)[C@H](C)[C@@H]1O[C@@H]([C@@H](CC)C(=O)O)CC[C@@H]1C)[C@H]1O[C@]2(C=C[C@@H](NC(=O)COC)[C@]3(CC[C@@](C)([C@H]4CC[C@](O)(CC)[C@H](C)O4)O3)O2)[C@H](C)C[C@@H]1C [(13)]	T

// switching to the query compound
Query: Has CCCCNC(=O)N[C@@H]1C=C[C@]2(O[C@H]([C@@H](CC)C(=O)[C@@H](C)[C@@H](O)[C@H](C)[C@@H]3O[C@@H]([C@@H](CC)C(=O)[O-])CC[C@@H]3C)[C@@H](C)C[C@H]2C)O[C@@]12CC[C@@](C)([C@H]1CC[C@](O)(CC)[C@H](C)O1)O2.[Na+] [(24)] a recorded SI LoVo greater than or equal to 5?
Result: T

====

# assay-protocol: In vitro cytotoxicity test on normal cells, SRB assay, 72 h incubation with compound
# Type: cell-based
# test-conditions: mouse, balb/3t3 cells, normal murine fibroblasts, read-out: IC50 BALB/3T3
In plain terms, low CC50 at 72 h, meaning strictly below 2000 nM, gives satisfied, and everything else gives not satisfied.

molecule	assigned-category
CCCCNC(=O)N[C@@H]1C=C[C@]2(O[C@H]([C@@H](CC)C(=O)[C@@H](C)[C@@H](O)[C@H](C)[C@@H]3O[C@@H]([C@@H](CC)C(=O)[O-])CC[C@@H]3C)[C@@H](C)C[C@H]2C)O[C@@]12CC[C@@](C)([C@H]1CC[C@](O)(CC)[C@H](C)O1)O2.[Na+]	satisfied
CC[C@@H](C(=O)[C@@H](C)[C@@H](O)[C@H](C)[C@@H]1O[C@@H]([C@@H](CC)C(=O)O)CC[C@@H]1C)[C@H]1O[C@]2(C=C[C@@H](NC(=O)COC)[C@]3(CC[C@@](C)([C@H]4CC[C@](O)(CC)[C@H](C)O4)O3)O2)[C@H](C)C[C@@H]1C	not satisfied
CCOC(=O)N[C@@H]1C=C[C@]2(O[C@H]([C@@H](CC)C(=O)[C@@H](C)[C@@H](O)[C@H](C)[C@@H]3O[C@@H]([C@@H](CC)C(=O)O)CC[C@@H]3C)[C@@H](C)C[C@H]2C)O[C@@]12CC[C@@](C)([C@H]1CC[C@](O)(CC)[C@H](C)O1)O2	satisfied
CC[C@@H](C(=O)[C@@H](C)[C@@H](O)[C@H](C)[C@@H]1O[C@@H]([C@@H](CC)C(=O)O)CC[C@@H]1C)[C@H]1O[C@]2(C=C[C@@H](NC(=O)c3ccc(CCl)cc3)[C@]3(CC[C@@](C)([C@H]4CC[C@](O)(CC)[C@H](C)O4)O3)O2)[C@H](C)C[C@@H]1C	not satisfied

Query: Consider `CC[C@@H](C(=O)[C@@H](C)[C@@H](O)[C@H](C)[C@@H]1O[C@@H]([C@@H](CC)C(=O)[O-])CC[C@@H]1C)[C@H]1O[C@]2(C=C[C@@H](NC(=O)NCCCCl)[C@]3(CC[C@@](C)([C@H]4CC[C@](O)(CC)[C@H](C)O4)O3)O2)[C@H](C)C[C@@H]1C.[Na+]` . Does its CC50 at 72 h lie strictly below 2000 nM?
Result: satisfied

====

# Tested on: Hs294T (human melanoma)
# assay-protocol: In vitro cytotoxicity test, SRB assay, 72 h incubation with compound
# Format: cell-based
# test-conditions: Hs294T human melanoma, SRB, 72 h
Reported IC50 values for a set of molecules
# output: bare number, implied unit nM

Query: Fill in reported IC50 for this entry: CCOC(=O)N[C@H]1C=C[C@]2(O[C@H]([C@@H](CC)C(=O)[C@@H](C)[C@@H](O)[C@H](C)[C@@H]3O[C@@H]([C@@H](CC)C(=O)O)CC[C@@H]3C)[C@@H](C)C[C@H]2C)O[C@@]12CC[C@@](C)([C@H]1CC[C@](O)(CC)[C@H](C)O1)O2 [(19 epi), reference compound]
Result: 60

Query: Supply IC50 value. Item: N.N.[Cl][Pt][Cl] [cisplatin, reference compound]
Result: 4010

Query: Identify measured IC50 associated with CC[C@@H](C(=O)[C@@H](C)[C@@H](O)[C@H](C)[C@@H]1O[C@@H]([C@@H](CC)C(=O)O)CC[C@@H]1C)[C@H]1O[C@]2(C=C[C@H](NC(=O)c3ccccc3)[C@]3(CC[C@@](C)([C@H]4CC[C@](O)(CC)[C@H](C)O4)O3)O2)[C@H](C)C[C@@H]1C [(15 epi), reference compound]
Result: 80

Query: Tell me its IC50 given CC[C@@H](C(=O)[C@@H](C)[C@@H](O)[C@H](C)[C@@H]1O[C@@H]([C@@H](CC)C(=O)O)CC[C@@H]1C)[C@H]1O[C@]2(C=C[C@H](NC(=O)C(C)C)[C@]3(CC[C@@](C)([C@H]4CC[C@](O)(CC)[C@H](C)O4)O3)O2)[C@H](C)C[C@@H]1C [(10 epi), reference compound] as the entry.
Result: 4000

====

# Test system: MV-4-11 (human biphenotypic leukaemia)
# assay-protocol: In vitro cytotoxicity test, MTT assay, 72 h incubation with compound
# Assay type: cell-based
# test-conditions: selectivity coefficient, BALB/3T3 versus MV-4-11
# Method: In vitro cytotoxicity tests were performed according to the procedure described below. […] The solvent for further dilutions was a culture medium. The experiments were repeated at least 3 times. After 4 hours of incubation at 37° C., 80 μL of lysis buffer was added to each well.
measurement-label: SI MV-4-11
Reply with the value as a number alone.

A selection of reference data follows.
compound	assayed-system	endpoint-result
CCOC(=O)N[C@@H]1C=C[C@]2(O[C@H]([C@@H](CC)C(=O)[C@@H](C)[C@@H](O)[C@H](C)[C@@H]3O[C@@H]([C@@H](CC)C(=O)O)CC[C@@H]3C)[C@@H](C)C[C@H]2C)O[C@@]12CC[C@@](C)([C@H]1CC[C@](O)(CC)[C@H](C)O1)O2	MV-4-11 (human biphenotypic leukaemia)	24.3
CC[C@@H](C(=O)[C@@H](C)[C@@H](O)[C@H](C)[C@@H]1O[C@@H]([C@@H](CC)C(=O)O)CC[C@@H]1C)[C@H]1O[C@]2(C=C[C@@H](NC(=O)OC)[C@]3(CC[C@@](C)([C@H]4CC[C@](O)(CC)[C@H](C)O4)O3)O2)[C@H](C)C[C@@H]1C	MV-4-11 (human biphenotypic leukaemia)	25.1
CCCNC(=O)N[C@@H]1C=C[C@]2(O[C@H]([C@@H](CC)C(=O)[C@@H](C)[C@@H](O)[C@H](C)[C@@H]3O[C@@H]([C@@H](CC)C(=O)[O-])CC[C@@H]3C)[C@@H](C)C[C@H]2C)O[C@@]12CC[C@@](C)([C@H]1CC[C@](O)(CC)[C@H](C)O1)O2.[Na+]	MV-4-11 (human biphenotypic leukaemia)	1400.0
CC[C@@H](C(=O)[C@@H](C)[C@@H](O)[C@H](C)[C@@H]1O[C@@H]([C@@H](CC)C(=O)O)CC[C@@H]1C)[C@H]1O[C@]2(C=C[C@@H](NC(=O)CCCCl)[C@]3(CC[C@@](C)([C@H]4CC[C@](O)(CC)[C@H](C)O4)O3)O2)[C@H](C)C[C@@H]1C	MV-4-11 (human biphenotypic leukaemia)	85.4
CC[C@@H](C(=O)[C@@H](C)[C@@H](O)[C@H](C)[C@@H]1O[C@@H]([C@@H](CC)C(=O)O)CC[C@@H]1C)[C@H]1O[C@]2(C=C[C@@H](NC(=O)c3ccccc3)[C@]3(CC[C@@](C)([C@H]4CC[C@](O)(CC)[C@H](C)O4)O3)O2)[C@H](C)C[C@@H]1C	MV-4-11 (human biphenotypic leukaemia)	27.2

Query: For `CC[C@@H](C(=O)[C@@H](C)[C@@H](O)[C@H](C)[C@@H]1O[C@@H]([C@@H](CC)C(=O)O)CC[C@@H]1C)[C@H]1O[C@]2(C=C[C@@H](NC(=O)OCC(C)(C)C)[C@]3(CC[C@@](C)([C@H]4CC[C@](O)(CC)[C@H](C)O4)O3)O2)[C@H](C)C[C@@H]1C` , write its SI MV-4-11.
Result: 9.0

Query: Give recorded SI MV-4-11. `CC[C@@H](C(=O)[C@@H](C)[C@@H](O)[C@H](C)[C@@H]1O[C@@H]([C@@H](CC)C(=O)O)CC[C@@H]1C)[C@H]1O[C@]2(C=C[C@@H](NC(=O)c3ccc(CCl)cc3)[C@]3(CC[C@@](C)([C@H]4CC[C@](O)(CC)[C@H](C)O4)O3)O2)[C@H](C)C[C@@H]1C`
Result: 83.3

Query: Note down SI MV-4-11 recorded for `CC[C@@H](C(=O)[C@@H](C)[C@@H](O)[C@H](C)[C@@H]1O[C@@H]([C@@H](CC)C(=O)[O-])CC[C@@H]1C)[C@H]1O[C@]2(C=C[C@@H](NC(=O)NCCCCl)[C@]3(CC[C@@](C)([C@H]4CC[C@](O)(CC)[C@H](C)O4)O3)O2)[C@H](C)C[C@@H]1C.[Na+]`
Result: 4500.0

Query: Complete the entry with SI MV-4-11 for CC[C@@H](C(=O)[C@@H](C)[C@@H](O)[C@H](C)[C@@H]1O[C@@H]([C@@H](CC)C(=O)O)CC[C@@H]1C)[C@H]1O[C@]2(C=C[C@H](NC(=O)C(C)C)[C@]3(CC[C@@](C)([C@H]4CC[C@](O)(CC)[C@H](C)O4)O3)O2)[C@H](C)C[C@@H]1C [(10 epi), reference compound]
Result: 9.5

Query: Fill in SI MV-4-11 for record `C#CCOC(=O)N[C@@H]1C=C[C@]2(O[C@H]([C@@H](CC)C(=O)[C@@H](C)[C@@H](O)[C@H](C)[C@@H]3O[C@@H]([C@@H](CC)C(=O)O)CC[C@@H]3C)[C@@H](C)C[C@H]2C)O[C@@]12CC[C@@](C)([C@H]1CC[C@](O)(CC)[C@H](C)O1)O2`
Result: 26.4

Query: Answer with reported SI MV-4-11 of `CC[C@@H](C(=O)[C@@H](C)[C@@H](O)[C@H](C)[C@@H]1O[C@@H]([C@@H](CC)C(=O)O)CC[C@@H]1C)[C@H]1O[C@]2(C=C[C@@H](NC(=O)C(C)C)[C@]3(CC[C@@](C)([C@H]4CC[C@](O)(CC)[C@H](C)O4)O3)O2)[C@H](C)C[C@@H]1C`
Result: 50.3

Query: Give me measured SI MV-4-11, please, for this compound: CCOC(=O)N[C@H]1C=C[C@]2(O[C@H]([C@@H](CC)C(=O)[C@@H](C)[C@@H](O)[C@H](C)[C@@H]3O[C@@H]([C@@H](CC)C(=O)O)CC[C@@H]3C)[C@@H](C)C[C@H]2C)O[C@@]12CC[C@@](C)([C@H]1CC[C@](O)(CC)[C@H](C)O1)O2 [(19 epi), reference compound]
Result: 22
